Tested on: L1210 leukemia ip in BDF1 mice, survival T/C
test-protocol: NCI In Vivo Anticancer Drug Screen. Data for tumor model L1210 Leukemia (intraperitoneal) in B6D2F1 (BDF1) mice
condition: endpoint: mean survival time; dose: 200.0 mg/kg/injection; schedule: Q01DX001 (ip); vehicle: saline; higher = longer survival
Toxic doses and inconclusive results are not listed. Square brackets hold non-standard residues; d marks the D form. Peptide text beside a SMILES is read from it. * marks the point of attachment. ξ: configuration not given here. ξH = NC(Cc1c[nH]cn1)C(=O)O; Cbz = O=C(OCc1ccccc1)*
In this section, each of the molecules is paired with its reported T/C.
quantity: T/C

1) CC(=O)CC(=O)Nc1ccc(Cc2ccccc2)cc1    94 % of control
2) CC(C)=N/N=C(/C(=O)c1ccccc1)c1ccccc1    109 % of control
3) CSc1ncnc2c1cnn2C1OC(CCC#N)C(O)C1O (stereo unspecified)    98 % of control
4) O=C(CNC(=O)OCc1ccccc1)NC(Cc1cnc[nH]1)C(=O)O (stereo not drawn) (Cbz-Gly-[ξH]-OH)    104 % of control
5) Oc1ccc2c(c1)Cc1c-2nc2ccccc2c1Cl    97 % of control
6) CSc1c(C(N)=O)c2c(N)ncnc2n1C1OC(CO)C(O)C1O (stereo unspecified)    121 % of control

Origin of values: PubChem BioAssay AID248
